Assign protein stability index to each entry below.
B1: ZNF263 (parent)
chain: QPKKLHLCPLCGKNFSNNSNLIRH

- Variants of: B1
- test-summary: protein stability index of a GFP-peptide fusion (GPS, HEK-293T) (PSI 1-6); higher = more stable;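 also: lentivirally expressed fusions sorted by FACS into six bins by GFP to DsRed ratio, PSI derived from sequencing read proportions per bin multiplied by bin number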
- assay-setup: c terminus: a fixed tail appended
One number for each entry.

Batch: protein stability index for all items listed.
1. QPKKLHLCPLCGKGFSNNSNLIRH [N14G]
2. QPWKLHLCPLCGKNFSNNSNLIRH [K3W]
3. QPKKLHLCHLCGKNFSNNSNLIRH [P9H]
4. QPKKLHLCPLCGHNFSNNSNLIRH [K13H]
5. QGKKLHLCPLCGKNFSNNSNLIRH [P2G]
6. QPKKLHLCPLCGSNFSNNSNLIRH [K13S]

Result:
[2.63, 1.93, 2.38, 2.62, 2.22, 2.41]

Batch: protein stability index for all items listed.
1. QPKKLHLCPLCGKNFSNNSNLIRN [H24N]
2. QPKKLHLCPLCGKNHSNNSNLIRH [F15H]
3. QPKKLHNCPLCGKNFSNNSNLIRH [L7N]

Result:
1. 2.22
2. 3.33
3. 2.18

Where do the numbers come from? From the supplement of paper PMC10567573.
